- target_under_test: Tubulin (Bos taurus, UniProt Q6B856+Q862L2+Q862F3)
- method_summary: Inhibition of bovine brain tubulin polymerization (ITP).
Please note: IC50 exactly at 700 nM is f. Only values below 700 nM get t.

- molecule: "COc1cccc([C@@H]2C/C(=N\\NC(=O)C(=O)NC(C)c3ccccc3)c3cc4c(cc3N2)OCO4)c1 (stereo not given in full)"
  target_under_test: "Tubulin (Bos taurus, UniProt Q6B856+Q862L2+Q862F3)"
  label_value: "f"
- molecule: "COc1cccc(C2CC(=O)c3cc(N4CCCC4)ccc3N2)c1 (stereo not given)"
  target_under_test: "Tubulin (Bos taurus, UniProt Q6B856+Q862L2+Q862F3)"
  label_value: "t"
- molecule: "COc1cccc([C@H]2C/C(=N\\NC(=O)C(=O)NC(C)c3ccccc3)c3ccccc3N2)c1 (stereo not given in full)"
  target_under_test: "Tubulin (Bos taurus, UniProt Q6B856+Q862L2+Q862F3)"
  label_value: "f"
- molecule: "O=C1CC(c2cccc(Cl)c2)Nc2ccc(N3CCCC3)cc21 (stereo not given)"
  target_under_test: "Tubulin (Bos taurus, UniProt Q6B856+Q862L2+Q862F3)"
  label_value: "f"
- molecule: "COc1cccc([C@@H]2CC(=O)c3ccccc3N2)c1"
  target_under_test: "Tubulin (Bos taurus, UniProt Q6B856+Q862L2+Q862F3)"
  label_value: "f"
- molecule: "COc1cccc(-c2cc(O)c3cc4c(cc3n2)OCO4)c1"
  target_under_test: "Tubulin (Bos taurus, UniProt Q6B856+Q862L2+Q862F3)"
  label_value: "f"

Below 700 nM on IC50? Entry COc1ccc(C2CC(=O)c3ccccc3N2)cc1 (stereo not given)
f

Below 700 nM on IC50? Entry COc1cccc([C@@H]2C/C(=N\NC(=O)C(=O)NC(C)c3ccccc3)c3ccccc3N2)c1 (stereo not given in full)
f

Below 700 nM on IC50? Entry `COc1cccc(-c2cc(O)c3cc(N4CCCC4)ccc3n2)c1`
t

Below 700 nM on IC50? Entry O=C1CC(c2ccccc2)Nc2ccccc21 (stereo not given)
f
